# systemUnderTest: human TAS2R4 (Homo sapiens)
# Construct: expressed in transfected cells; host or cells: HEK293T-Gα16gust44
# Sequence (Q9NYW5 whole entry): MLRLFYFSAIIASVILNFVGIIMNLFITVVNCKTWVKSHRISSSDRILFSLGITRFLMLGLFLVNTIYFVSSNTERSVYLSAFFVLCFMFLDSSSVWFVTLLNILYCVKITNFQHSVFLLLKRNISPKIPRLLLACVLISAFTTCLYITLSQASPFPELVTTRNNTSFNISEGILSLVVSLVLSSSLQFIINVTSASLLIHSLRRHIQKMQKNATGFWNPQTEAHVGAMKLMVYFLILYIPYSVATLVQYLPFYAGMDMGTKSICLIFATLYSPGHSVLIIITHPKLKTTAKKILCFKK
# assayOverview: Calcium imaging assay (FLIPR), HEK293T-Gα16gust44 cells transfected with human TAS2R4; also: test concentration or dose not given here
# Format: cell-based
# measurementContext: Time (s) 78.781 (TCA, TLCA: 78.782)
The entries below come with measured RLU, fluorescence trace values attached.
Write it as a number; the unit RLU goes unstated.

C[C@H](CCC(=O)O)[C@H]1CC[C@H]2[C@@H]3[C@H](O)C[C@@H]4C[C@H](O)CC[C@]4(C)[C@H]3C[C@H](O)[C@]12C = 661.065
C[C@H](CCC(=O)NCCS(=O)(=O)O)[C@H]1CC[C@H]2[C@@H]3CC[C@@H]4C[C@H](O)CC[C@]4(C)[C@H]3CC[C@]12C = 302.496
C[C@H](CCC(=O)NCCS(=O)(=O)O)[C@H]1CC[C@H]2[C@@H]3[C@H](O)C[C@@H]4C[C@H](O)CC[C@]4(C)[C@H]3C[C@H](O)[C@]12C = 678.287
C[C@H](CCC(=O)NCC(=O)O)[C@H]1CC[C@H]2[C@@H]3[C@H](O)C[C@@H]4C[C@H](O)CC[C@]4(C)[C@H]3C[C@H](O)[C@]12C = 820.296
C[C@H](CCC(=O)O)[C@H]1CC[C@H]2[C@@H]3CC[C@@H]4C[C@H](O)CC[C@]4(C)[C@H]3C[C@H](O)[C@]12C = 381.123

Query: I would be grateful if you could share the reported RLU, fluorescence trace for C[C@H](CCC(=O)O)[C@H]1CC[C@H]2[C@@H]3[C@@H](O)C[C@@H]4C[C@H](O)CC[C@]4(C)[C@H]3CC[C@]12C .
Reply: 368.91

Origin of the recorded values: paper PMC10247784
